system: T-47D breast; test: NCI-60 one-dose screen, 48 h; details: 10 µM unless noted
About 83,000 compounds went through this panel and 20% of them were active in at least one assay; those are over-represented in the sample as a whole. Calls of active or inactive are those of the source. The calls were made as follows: active = growth percent below 10; inactive = the rest.
Classes used: active, inactive

[
  {
    "COMPOUND": "CC(C)C1=NOC(=O)C1=Cc1cn(-c2ccco2)nc1-c1ccccc1",
    "LABEL": "inactive"
  },
  {
    "COMPOUND": "O=C(Nc1cc(-c2cccnc2)nc(NCCCN2CCOCC2)n1)c1cc(Br)cc(C(F)(F)F)c1",
    "LABEL": "inactive"
  },
  {
    "COMPOUND": "N=C(N)c1ccc(-c2ccc(-c3ccc(-c4cccs4)s3)s2)cc1F",
    "LABEL": "inactive"
  },
  {
    "COMPOUND": "Cc1cc2c(C(C)C)c(O)c(O)c(C=NCc3ccoc3)c2c(O)c1-c1c(C)cc2c(C(C)C)c(O)c(O)c(C=NCc3ccco3)c2c1O",
    "LABEL": "inactive"
  },
  {
    "COMPOUND": "Cc1nn(-c2ccccc2)c(N2CCOCC2)c1-c1nc2ccc([N+](=O)[O-])cc2[nH]1",
    "LABEL": "inactive"
  },
  {
    "COMPOUND": "CCCCCCNC(=O)Nc1ncnc2c1ncn2-c1ccccc1",
    "LABEL": "inactive"
  },
  {
    "COMPOUND": "N#C/C(C(=O)c1ccccc1)=C1/C(=O)Nc2ccc(F)cc21",
    "LABEL": "inactive"
  },
  {
    "COMPOUND": "Cc1c(Cn2cc(COc3ccc(Br)cc3)nn2)c(C)c(Cn2cc(COc3ccc(Br)cc3)nn2)c(C)c1Cn1cc(COc2ccc(Br)cc2)nn1",
    "LABEL": "inactive"
  },
  {
    "COMPOUND": "N#Cc1c(Cl)nc(SCC2CO2)nc1-c1ccccc1 (stereo not given)",
    "LABEL": "inactive"
  },
  {
    "COMPOUND": "C=C(C)[C@@H]1CC[C@]2(C)[C@H](CC[C@@H]3[C@@H]([C@@](C)(O)CCC=C(C)C)CC[C@]32C)[C@@]1(C)CCC(=O)N1CCN(C)CC1",
    "LABEL": "active"
  }
]

----------
system: SN12C renal; assay: NCI-60 one-dose screen, 48 h; conditions: 10 µM unless noted
This is part of a sample that, as a whole, favours compounds with a hit. Of some 83,000 tested, about 20% had one in any assay. The source made the active and inactive calls. Rule for the calls: active = growth percent below 10; inactive = the rest.
Classes used: true (1) for active, false (0) for inactive

[
  {
    "COMPOUND": "CCCn1ccnc1C(O)c1ccc(OCc2ccccc2)c(OC)c1 (configuration not stated)",
    "LABEL": "false (0)"
  },
  {
    "COMPOUND": "COc1cc(C)cc2oc3oc(=O)c(-c4nc5ccccc5s4)cc3c(=O)c12",
    "LABEL": "false (0)"
  },
  {
    "COMPOUND": "CCC(Br)(CC)C(=O)c1ccc(OCC(=O)O)c(Cl)c1Cl",
    "LABEL": "false (0)"
  },
  {
    "COMPOUND": "CC(C)OC(=O)Nc1cc(F)c(F)cc1F",
    "LABEL": "false (0)"
  },
  {
    "COMPOUND": "O=C(CCN1CCCCC1)c1ccc2ccccc2c1",
    "LABEL": "false (0)"
  },
  {
    "COMPOUND": "CC(C)c1ccc(/C=N/N=C(N)N)cc1",
    "LABEL": "false (0)"
  },
  {
    "COMPOUND": "NC1=NC(=O)NC1(c1ccccc1)c1ccccc1",
    "LABEL": "false (0)"
  },
  {
    "COMPOUND": "CCN(CC)CCSC(=O)C(O)(c1ccccc1)C1CCCC1 (configuration not stated)",
    "LABEL": "false (0)"
  },
  {
    "COMPOUND": "COC(=O)[C@]12CCC(C)(C)C[C@H]1C1=CC[C@@H]3[C@@]4(C)C/C(=C/c5cccnc5)C(=O)C(C)(C)[C@@H]4CC[C@@]3(C)[C@]1(C)CC2",
    "LABEL": "true (1)"
  },
  {
    "COMPOUND": "CCCCOC(=O)c1cccc([N+](=O)[O-])c1",
    "LABEL": "false (0)"
  },
  {
    "COMPOUND": "CCN1c2ccccc2C(Cl)(c2ccc(N(C)C)cc2)c2ccccc21",
    "LABEL": "false (0)"
  },
  {
    "COMPOUND": "CCCC(NC(=O)OCc1ccccc1)C(=O)O (configuration not stated)",
    "LABEL": "false (0)"
  },
  {
    "COMPOUND": "Cc1ccc2c(c1)/C(=N\\N=C/c1cn(C(C)C)c3ccccc13)C(=O)N2",
    "LABEL": "false (0)"
  },
  {
    "COMPOUND": "COc1ccc2nc3ccccc3c(NCCNCCO)c2c1",
    "LABEL": "true (1)"
  },
  {
    "COMPOUND": "CCN(CC)CCCOc1ccc2c(c1)O/C(=C\\c1cccc(OC)c1)C2=O",
    "LABEL": "false (0)"
  },
  {
    "COMPOUND": "COc1cc(NN=C(c2ccc(O)cc2)c2ccc(O)cc2)c([N+](=O)[O-])cc1[N+](=O)[O-]",
    "LABEL": "false (0)"
  },
  {
    "COMPOUND": "CNC(=O)c1cc(Oc2ccc3nc(NC(=O)c4ccc5ncccc5c4)sc3c2)ccn1",
    "LABEL": "false (0)"
  }
]

Sourced from PubChem BioAssay (NCI)
